self-cleavage listing for selected variants.
B1: OR4K15 (parent)
chain: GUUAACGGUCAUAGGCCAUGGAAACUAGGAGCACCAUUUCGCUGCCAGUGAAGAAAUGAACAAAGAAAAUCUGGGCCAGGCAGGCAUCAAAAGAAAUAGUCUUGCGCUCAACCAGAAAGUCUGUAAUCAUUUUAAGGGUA

Variants of: B1
method.summary: self-cleavage, relative activity (ratio to wild type); higher = more cleavage; in vitro, sequencing; the parent is a self-cleaving ribozyme

# variant.code, self-cleavage
rows = [
    ("U49C A95G", 1),
    ("A54U", 1.2),
    ("U39A A78U", 0.44),
    ("A92U A96G", 1.85),
    ("A4G A24C", 1.03),
    ("U38C A114G", 0.75),
    ("U39A A92G", 0.92),
    ("G41C U87C", 2.03),
    ("U19A U102C", 1.65),
    ("A11G A66U", 1.45),
    ("A47G A92G", 1.02),
    ("G99U A117G", 0.36),
    ("A89C U103C", 0.8),
    ("C32A A63G", 1.46),
    ("U19A A56G", 1.6),
    ("A13U A63U", 1.13),
    ("A64G A78U", 0.4),
    ("C16U U97C", 1.23),
    ("U9A A36U", 1.2),
    ("A11G G106A", 0.06),
    ("A110U A118G", 0.72),
    ("U122C A135G", 1.24),
    ("A110C A116G", 0.26),
    ("A63U A86C", 1.78),
    ("G14A U122A", 1.16),
    ("U12C A89U", 1.82),
    ("A22G A96C", 1.58),
    ("A86U U102A", 1.36),
    ("U38C G41A", 1.95),
    ("U39A G104A", 0.03),
    ("A82U A125G", 0.03),
    ("U12A A51G", 0.95),
    ("U26C U102C", 1.65),
    ("A5G U38G", 1.02),
    ("A59G A60U", 2.03),
    ("A86U A117U", 1.56),
]
